# Test system: E28 (patient-derived glioblastoma stem cells of classical subtype)
# method: phenotypic distance (Euclidean, principal components) from DMSO controls (arbitrary units); higher = stronger morphological change;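 also: cell Painting imaging in 384-well plates, CellProfiler features reduced to at least 20 principal components, Euclidean distance versus same-plate DMSO vehicle wells (0.1% v/v), median over six images per well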
# condition.set: 37 nM; exposure time: 72 h
Structures can show the parent of a compound that is named as a salt.
Assign label 1 whenever phenotypic distance does not fall below 0.9; assign label 0 whenever it does.

Completed entries (count: 4):
1) CCC(C)n1ncn(-c2ccc(N3CCN(c4ccc(OCC5COC(Cn6cncn6)(c6ccc(Cl)cc6Cl)O5)cc4)CC3)cc2)c1=O (configuration not stated) = label 0
2) O=C(C1CC1)N1CC[C@@H](Cc2n[nH]c(=O)n2-c2ccc(-c3ccc4occc4c3)cc2)C1 = label 1
3) C=CC(=O)Nc1cc(Nc2nccc(-c3cn(C)c4ccccc34)n2)c(OC)cc1N(C)CCN(C)C [Osimertinib mesylate] = label 0
4) Oc1ccc(OCc2ccccc2)cc1 = label 0

Task: Given CN1C(=O)[C@@]23C[C@]4([C@]56C[C@@]78SS[C@@](CO)(C(=O)N7[C@H]5Nc5ccccc56)N(C)C8=O)c5ccccc5N[C@@H]4N2C(=O)[C@]1(CO)SS3 , state whether its phenotypic distance is at least 0.9.
Output: label 1

Task: Given CNc1ccc2oc(C[C@H]3O[C@@]4(CC[C@H]3C)O[C@H]([C@H](C)C(=O)c3ccc[nH]3)[C@H](C)C[C@H]4C)nc2c1C(=O)O , state whether its phenotypic distance is at least 0.9.
Output: label 0

---

# Test system: E13 (patient-derived glioblastoma stem cells of classical subtype)
# method: phenotypic distance (Euclidean, principal components) from DMSO controls (arbitrary units); higher = stronger morphological change
# condition.set: 1000 nM; exposure time: 72 h
Where a name gives a salt, the structure may show the parent alone.
Known phenotypic distance of a selection of molecules
Answer with the value's number alone.

Completed entries (count: 5):
1) CCCCCCNC(=O)n1cc(F)c(=O)[nH]c1=O = 0.529
2) Cc1cc(C)c(CN2CCc3c(Cl)cc(-c4c(C)noc4C)c(Cl)c3C2=O)c(=O)[nH]1 = 0.53
3) CN1CCC(NC(=O)c2cc(-c3c(O)cc(O)cc3Oc3ccc([N+](=O)[O-])cc3)on2)CC1 = 5.34
4) CC1(C(=O)O)C2CCC(O2)C1(C)C(=O)O (stereo not given) = 0.671
5) CC[n+]1c(/C=C/C=C2/N(C)c3ccccc3C2(C)C)sc2ccccc21 = 3.71

Task: Returns the measured phenotypic distance for the input molecule. Input: C[C@]12CC[C@H](O)C[C@H]1CC[C@@H]1[C@@H]2C[C@@H](O)[C@]2(C)[C@@H](C3=CC(=O)OC3)CC[C@]12O
Output: 3.73

Task: Returns the measured phenotypic distance for the input molecule. Input: O=C(C1CC1)N1CC[C@@H](Cc2n[nH]c(=O)n2-c2ccc(-c3ccc4occc4c3)cc2)C1
Output: 3.21

Task: Returns the measured phenotypic distance for the input molecule. Input: Cc1ncc(CO)c(CO)c1O [Pyridoxine hydrochloride]
Output: 0.715

Task: Returns the measured phenotypic distance for the input molecule. Input: O=C(/C=C/c1cccnc1)NCCCCC1CCN(C(=O)c2ccccc2)CC1
Output: 2.27

Task: Returns the measured phenotypic distance for the input molecule. Input: COC(=O)[C@@H]1[C@H]2C[C@H]3c4[nH]c5ccccc5c4CCN3C[C@@H]2CC[C@@H]1O [Yohimbine hydrochloride]
Output: 0.622

Task: Returns the measured phenotypic distance for the input molecule. Input: CC(C)C[C@@H](C(=O)N[C@H](C(=O)OC1CCCC1)c1ccccc1)[C@H](O)C(=O)NO
Output: 1.41

Task: Returns the measured phenotypic distance for the input molecule. Input: CC(C)C[C@H](NC(=O)[C@H](Cc1ccccc1)C[C@@H](O)[C@H](Cc1ccccc1)NC(=O)OC(C)(C)C)C(=O)N[C@@H](Cc1ccccc1)C(N)=O
Output: 1.66

Task: Returns the measured phenotypic distance for the input molecule. Input: COc1ccc(/C=C\c2cc(OC)c(OC)c(OC)c2)cc1OP(=O)(O)O [Fosbretabulin Disodium]
Output: 8.31

Task: Returns the measured phenotypic distance for the input molecule. Input: COC(=O)C[C@](O)(CCCC(C)(C)O)C(=O)O[C@@H]1C(OC)=C[C@]23CCCN2CCc2cc4c(cc2[C@H]13)OCO4
Output: 7.51

Task: Returns the measured phenotypic distance for the input molecule. Input: Nc1ccn([C@@H]2O[C@H](CO)[C@@H](O)C2(F)F)c(=O)n1 [Gemcitabine HCl]
Output: 5.7

Task: Returns the measured phenotypic distance for the input molecule. Input: COC(=O)Nc1nc2cc(Sc3ccccc3)ccc2[nH]1
Output: 6.64
